Target: ATP-binding cassette sub-family C member 4 (Homo sapiens, UniProt O15439)
Sequence (O15439 whole entry): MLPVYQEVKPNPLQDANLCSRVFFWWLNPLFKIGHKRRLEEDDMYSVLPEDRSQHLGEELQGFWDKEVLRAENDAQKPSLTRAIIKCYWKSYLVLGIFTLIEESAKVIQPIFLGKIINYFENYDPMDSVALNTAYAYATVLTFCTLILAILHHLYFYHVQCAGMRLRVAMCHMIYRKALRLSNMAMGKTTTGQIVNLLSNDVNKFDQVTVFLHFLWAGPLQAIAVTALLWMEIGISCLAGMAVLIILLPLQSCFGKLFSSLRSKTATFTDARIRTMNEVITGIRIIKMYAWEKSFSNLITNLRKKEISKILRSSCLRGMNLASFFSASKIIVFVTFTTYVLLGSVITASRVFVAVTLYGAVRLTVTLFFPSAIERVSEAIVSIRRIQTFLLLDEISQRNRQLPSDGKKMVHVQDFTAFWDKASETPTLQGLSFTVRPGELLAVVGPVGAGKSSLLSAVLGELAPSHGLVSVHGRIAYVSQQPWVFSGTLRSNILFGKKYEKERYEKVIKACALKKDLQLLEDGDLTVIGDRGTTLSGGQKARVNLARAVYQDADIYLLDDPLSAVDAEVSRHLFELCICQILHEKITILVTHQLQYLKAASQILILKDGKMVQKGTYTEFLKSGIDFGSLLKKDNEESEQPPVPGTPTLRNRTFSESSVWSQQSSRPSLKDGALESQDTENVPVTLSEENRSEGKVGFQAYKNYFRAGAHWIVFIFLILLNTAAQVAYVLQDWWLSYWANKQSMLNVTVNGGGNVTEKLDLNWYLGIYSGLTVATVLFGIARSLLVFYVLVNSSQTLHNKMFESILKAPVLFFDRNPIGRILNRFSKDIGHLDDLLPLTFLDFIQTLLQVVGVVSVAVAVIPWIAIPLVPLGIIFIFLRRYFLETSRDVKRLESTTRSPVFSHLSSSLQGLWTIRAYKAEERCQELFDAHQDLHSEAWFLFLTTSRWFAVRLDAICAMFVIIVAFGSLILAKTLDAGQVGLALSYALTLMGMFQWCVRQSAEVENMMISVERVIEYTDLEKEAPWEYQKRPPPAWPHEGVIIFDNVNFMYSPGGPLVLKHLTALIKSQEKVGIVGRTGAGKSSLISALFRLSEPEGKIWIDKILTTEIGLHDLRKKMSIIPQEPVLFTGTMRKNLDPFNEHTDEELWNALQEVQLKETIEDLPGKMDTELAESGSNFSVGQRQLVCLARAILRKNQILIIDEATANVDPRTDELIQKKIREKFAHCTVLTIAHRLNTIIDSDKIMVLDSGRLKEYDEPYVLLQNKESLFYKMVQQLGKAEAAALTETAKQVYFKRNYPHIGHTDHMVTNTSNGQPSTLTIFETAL
Experiment: TP_TRANSPORTER: inhibition of E217betaG uptake in membrane vesicles from MRP4-expressing Sf9 cells
Assay type: functional, cell membranes, Membrane vesicle
test.readout: pIC50
Numbers only, as −log10 of the molar value.

C[C@]12CC[C@@H]3c4ccc(OS(=O)(=O)O)cc4CC[C@H]3[C@@H]1CCC2=O : 4.35
C[C@]12CC[C@@H]3c4ccc(OS(=O)(=O)O)cc4CC[C@H]3[C@@H]1CC[C@H]2O : 4.30
C[C@]12CC[C@@H]3c4ccc(O[C@@H]5O[C@H](C(=O)O)[C@@H](O)[C@H](O)[C@H]5O)cc4CC[C@H]3[C@@H]1CC[C@@H]2O : 3.92
C[C@]12CC[C@@H]3c4ccc(OS(=O)(=O)O)cc4CC[C@H]3[C@@H]1CC[C@@H]2OS(=O)(=O)O [ESTRADIOL DISULFATE] : 5.70

// next item, pIC50 requested
Task: Any idea what pIC50 came out for C[C@]12CC[C@H](O[C@@H]3O[C@H](C(=O)O)[C@@H](O)[C@H](O)[C@H]3O)CC1=CC[C@@H]1[C@@H]2CC[C@]2(C)C(=O)CC[C@@H]12 on ATP-binding cassette sub-family C member 4 (Homo sapiens, UniProt O15439)?
Output: 4.10
